These data points were gathered from patent US20140348747A1.

target: 5P+VTG; settings: modification not given
readout-label: Kd
Report field: quantity (unit follows the number).

// NVSGWRLFKKISN [NLpep78] : Kd value = 26 nM
